Molecular target: glucocerebrosidase (Homo sapiens, UniProt P04062)
Sequence (P04062 40-536): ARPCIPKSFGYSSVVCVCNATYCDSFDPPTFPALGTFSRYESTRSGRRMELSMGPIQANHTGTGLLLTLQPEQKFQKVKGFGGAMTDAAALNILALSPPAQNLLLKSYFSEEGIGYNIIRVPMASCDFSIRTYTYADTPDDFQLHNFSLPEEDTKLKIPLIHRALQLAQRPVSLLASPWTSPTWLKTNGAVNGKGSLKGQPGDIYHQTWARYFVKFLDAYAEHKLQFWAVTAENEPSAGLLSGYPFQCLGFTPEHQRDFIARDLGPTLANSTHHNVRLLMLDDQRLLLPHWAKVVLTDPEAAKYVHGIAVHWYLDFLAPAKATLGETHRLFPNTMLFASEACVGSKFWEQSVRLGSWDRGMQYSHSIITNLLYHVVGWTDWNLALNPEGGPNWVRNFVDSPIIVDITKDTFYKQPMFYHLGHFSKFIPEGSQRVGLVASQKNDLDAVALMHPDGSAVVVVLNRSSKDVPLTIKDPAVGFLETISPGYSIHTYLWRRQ
Test: Glucocerebrosidase activity assay with blue substrate (4MU-Glc)
Assay type: biochemical
Settings: Table 2; additional compounds, tested as described in Example 2
parameterMeasured: AC50 (µM)

INSERT INTO results (compound, recordedresult) VALUES
  ('CN(CCOc1ccc2[nH]ccc2c1)c1nc(-c2cccnc2)nc2ccccc12', 4.47);

[P] CN(CCOc1ccccc1)c1cc(N2CCC(CO)CC2)nc(-c2cccnc2)n1
[Q] CCN1Cc2nc(-c3cccnc3)nc(N(C)CCOc3ccccc3)c2C1
[R] CCn1ncc2c(N3CC[C@@H](Oc4ccccc4)C3)nc(-c3cncc(C(F)(F)F)c3)nc21
[S] CC(C)Cn1ncc2c(N(C)CCOc3ccccc3)nc(-c3cccnc3)nc21
[T] CCn1ncc2c(N3CCC[C@@H](Oc4ccccc4)C3)nc(-c3cccnc3)nc21
Enquiry: // smallest AC50 at index 0, largest at the end List the labels in the requested order.
Return: Q, S, P, T, R

* * *

Biological target: glucocerebrosidase (Homo sapiens)
Test: Glucocerebrosidase activity assay with blue substrate (4MU-Glc)
Assay type: biochemical
Conditions: Table 2; additional compounds, tested as described in Example 2
parameterMeasured: Emax (%)

INSERT INTO assay_data (structuresmiles, recordedresult) VALUES
  ('CCn1ncc2c(N(C)CCOc3ccc(CNC(=O)CCCCNC(=O)OC(C)(C)C)cc3)nc(-c3cccnc3)nc21', 800);

[A] CCn1ncc2c(N3CC[C@@H](Oc4ccccc4)C3)nc(-c3cncc(Cl)c3)nc21
[B] CN(CCOc1ccccc1)c1cc(N2CCC(O)CC2)nc(-c2cccnc2)n1
[C] CCCn1ncc2c(N(C)CCOc3ccccc3)nc(-c3cccnc3)nc21
[D] CCc1ccc(-c2nc(N(C)CCOc3ccc(CN)cc3)c3cnn(CC)c3n2)cc1
Enquiry: Thanks in advance: please rank these 4 entries by Emax, highest to lowest. List the labels in the requested order.
Return: B, D, C, A
(B: 740%, D: 480%, C: 325%, A: 190%)

[P] CCn1ncc2c(N(C)CCOc3ccc(CN)cc3)nc(-c3ccsc3)nc21
[Q] CN(CCOc1ccccc1)c1nc(-c2cccnc2)nc2c1cnn2Cc1ccccc1
Enquiry: Of P and Q , which one carries the higher reported Emax? Write down the label of the entry you select.
Return: Q

[I] CCn1ncc2c(N3CC[C@H](Oc4ccccc4)C3)nc(-c3cncc(C(F)(F)F)c3)nc21
[II] CN(CCC(=O)Nc1ccccc1)c1nc(-c2cccnc2)nc2c1cnn2C
Enquiry: # compare Emax for I vs II ; return the one with the smaller value Write down the label of the entry you select.
Return: I
(I: 163%, II: 275%)

[P] CN(CCOc1ccccc1)c1cc(N2CCC(O)CC2)nc(Cl)n1
[Q] CN(CCOc1ccc2[nH]ccc2c1)c1nc(-c2cccnc2)nc2ccccc12
Enquiry: # compare Emax for P vs Q ; return the one with the smaller value Write down the label of the entry you select.
Return: P

* * *

Molecular target: glucocerebrosidase (Homo sapiens, UniProt P04062)
Test: Glucocerebrosidase activity assay with blue substrate (4MU-Glc)
Format: biochemical
Conditions: Table 2; additional compounds, tested as described in Example 2
parameterMeasured: AC50 (µM)

Example compounds with recorded AC50:
INSERT INTO measurements (structuresmiles, recordedresult) VALUES
  ('CN(CCOc1ccccc1)c1cc(N2CC[C@@H](O)C2)nc(-c2cccnc2)n1', 5),
  ('CCn1ncc2c(N(C)CCOc3ccc(CNC(=O)CCNC(=O)OC(C)(C)C)cc3)nc(-c3cccnc3)nc21', 2.82),
  ('CCn1ncc2c(N3CCC[C@H](Oc4ccccc4)C3)nc(-c3cccnc3)nc21', 25.1),
  ('CCn1ncc2c(N3CC[C@H](Oc4ccccc4)C3)nc(-c3cncc(C(F)(F)F)c3)nc21', 39.8),
  ('CCn1ncc2c(N3CC[C@@H](Oc4ccccc4)C3)nc(-c3cncc(Cl)c3)nc21', 39.8);

[a] CN(CCOc1ccccc1)c1cc(N2CCC(O)CC2)nc(Cl)n1
[b] CCn1ncc2c(N(C)CCOc3ccc(CNC(=O)CCCCCNC(=O)CCOCCOCCOCCOCCNC(=O)OC(C)(C)C)cc3)nc(-c3cccnc3)nc21
[c] CCn1ncc2c(N(C)CCOc3ccc(CNC(=O)CCCCNC(=O)OC(C)(C)C)cc3)nc(-c3cccnc3)nc21
[d] CCn1ncc2c(N(C)CCOc3ccc(CNC(=O)CCCNC(=O)OC(C)(C)C)cc3)nc(-c3cccnc3)nc21
Enquiry: // smallest AC50 at index 0, largest at the end List the labels in the requested order.
Return: c, d, b, a
(c: 0.5 µM, d: 1.41 µM, b: 2.82 µM, a: 28.2 µM)

* * *

Biological target: glucocerebrosidase (Homo sapiens, UniProt P04062)
Assay: Glucocerebrosidase activity assay with blue substrate (4MU-Glc)
Type: biochemical
Settings: Table 1; 7.5 nM enzyme, 1.5 mM 4MU-Glc, 30 min at 37° C., titration 24 nM to 50 μM
parameterMeasured: AC50 (µM)

Example compounds with recorded AC50:
INSERT INTO measurements (compound, recordedresult) VALUES
  ('CN(CCOc1ccccc1)c1nc(-c2cccnc2)nc2sccc12 [Compound 60]', 3.16),
  ('CCn1ncc2c(N(C)CCOc3ccc(CNC(=O)CCCCCNC(=O)OC(C)(C)C)cc3)nc(-c3cccnc3)nc21 [Compound 111]', 0.5),
  ('CN(CCOc1ccccc1)c1cc(N2CCOCC2)nc(-c2cccnc2)n1 [Compound 71]', 15.8),
  ('CN(CC1Cc2ccccc2O1)c1nc(-c2cccnc2)nc2ccccc12 (stereo not drawn) [Compound 82]', 1.12),
  ('CN(CCOc1cccc(C(=O)O)c1)c1nc(-c2cccnc2)nc2ccccc12 [Compound 80]', 15.8),
  ('CCn1ncc2c(N(C)C[C@H]3COc4ccccc4O3)nc(-c3cccnc3)nc21 [Compound 106]', 1.12),
  ('CN(C[C@H]1COc2ccccc2O1)c1nc(-c2cccnc2)nc2ncccc12 [Compound 11]', 3.83),
  ('CN(CCN1CCc2ccccc2C1)c1nc(-c2cccnc2)nc2c1cnn2C [Compound 101]', 79.4),
  ('CN(CCOc1ccccc1)c1nc(-c2cccnc2)nc2ccsc12 [Compound 59]', 5.01),
  ('c1ccc(OC2CCN(c3nc(-c4cccnc4)nc4ccccc34)C2)cc1 (stereo not drawn) [Compound 22]', 1.58);

[I] CN(Cc1ccc2ccccc2n1)c1nc(-c2cccnc2)nc2c1cnn2C [Compound 104]
[II] CN(CCOc1ccccc1)c1nc(-c2cccnc2)nc2ccc(F)cc12 [Compound 40]
[III] CN(CCOC(C)(C)C)c1nc(-c2cccnc2)nc2ccccc12 [Compound 29]
[IV] CN(CCOc1ccccc1)c1nc(-c2coc3ccccc23)nc2ccccc12 [Compound 49]
[V] CN(CCOC1CCCCC1)c1nc(-c2cccnc2)nc2c1cnn2C [Compound 102]
Enquiry: // smallest AC50 at index 0, largest at the end List the labels in the requested order.
Return: II, IV, I, V, III

[I] COC(=O)c1ccc(OCCN(C)c2nc(-c3cccnc3)nc3ccccc23)cc1 [Compound 76]
[II] CCCN(CCOc1ccccc1)c1nc(-c2cccnc2)nc2ccccc12 [Compound 15]
Enquiry: # compare AC50 for I vs II ; return the one with the smaller value Write down the label of the entry you select.
Return: II
(II: 3.12 µM, I: 4.47 µM)

* * *

Molecular target: UniProt:P04062
Assay: Glucocerebrosidase activity assay with blue substrate (4MU-Glc)
Format: biochemical
Settings: Table 2; additional compounds, tested as described in Example 2
parameterMeasured: Emax (%)

Example molecules with recorded Emax:
INSERT INTO assay_data (structuresmiles, targetentity, recordedresult) VALUES
  ('CN(CCOc1ccccc1)c1nc(-c2cccnc2)nc2cccnc12', 'UniProt:P04062', 225),
  ('CCn1ncc2c(N(C)CCOc3ccc(CNC(=O)CCCCNC(=O)OC(C)(C)C)cc3)nc(-c3ccsc3)nc21', 'UniProt:P04062', 157),
  ('CN(CCOc1ccccc1)c1nc(-c2cccnc2)nc2c1oc1ccccc12', 'UniProt:P04062', 178);

[P] Cn1ncc2c(N3CCC[C@@H](C(=O)Nc4ccccc4)C3)nc(-c3cccnc3)nc21
[Q] CCn1ncc2c(N3CCC[C@H](Oc4ccccc4)C3)nc(-c3cccnc3)nc21
Enquiry: Of P and Q , which one carries the higher reported Emax? Write down the label of the entry you select.
Return: Q

[I] CCn1ncc2c(N3CC[C@H](Oc4ccccc4)C3)nc(-c3cncc(Cl)c3)nc21
[II] CCn1ncc2c(N3CCC[C@@H](Oc4ccccc4)C3)nc(-c3cccnc3)nc21
[III] CCn1ncc2c(N3CC[C@@H](Oc4ccccc4)C3)nc(-c3cncc(C(F)(F)F)c3)nc21
Enquiry: Thanks in advance: please rank these 3 entries by Emax, highest to lowest. List the labels in the requested order.
Return: II, III, I
(II: 425%, III: 242%, I: 130%)
